# ASSAY REMARKS: Permeability of the compound by PAMPA
# Type: ADME
# ASSAY SETUP: read-out: permeability
Papp: recorded values

[
  {
    "STRUCTURE STRING": "Cn1c(=O)c2c(ncn2C)n(C)c1=O",
    "Papp": "0.9 ×10⁻⁶ cm/s"
  },
  {
    "STRUCTURE STRING": "COc1cc(OC)cc(-c2ccc(Cc3cn(Cc4ccc(F)cc4)c(N)n3)cc2)c1",
    "Papp": "4 ×10⁻⁶ cm/s"
  },
  {
    "STRUCTURE STRING": "CN1C(C(=O)Nc2ccccn2)=C(O)c2ccccc2S1(=O)=O",
    "Papp": "0.4 ×10⁻⁶ cm/s"
  },
  {
    "STRUCTURE STRING": "Nc1nc(Cc2ccc(-c3cccc4oc5ccccc5c34)cc2)cn1Cc1ccccc1Cl",
    "Papp": "4 ×10⁻⁶ cm/s"
  },
  {
    "STRUCTURE STRING": "CCn1cc(C(=O)O)c(=O)c2cc(F)c(N3CCNCC3)nc21",
    "Papp": "0.3 ×10⁻⁶ cm/s"
  },
  {
    "STRUCTURE STRING": "COc1cc(OC)cc(-c2ccc(Cc3cn(Cc4cc(F)cc(F)c4)c(N)n3)cc2)c1",
    "Papp": "3.2 ×10⁻⁶ cm/s"
  },
  {
    "STRUCTURE STRING": "CN(C)CCCN1c2ccccc2Sc2ccccc21",
    "Papp": "11.5 ×10⁻⁶ cm/s"
  }
]
